- Species on record: Cavia porcellus
- Test Summary: In vitro percent inhibition of LTD4 release from sensitized guinea pig lung fragment at dose of 10 uM
- Type: functional
Hi there, I'd appreciate the recorded inhibition at 10 µM for every entry that follows.
Answers are plain numbers, in %.

Worked examples, 3 compounds total:
Task item: Return the recorded inhibition at 10 µM value; entry: "O=c1c2c(c3cccnc3n1-c1ccccc1)OCC2"
Reply: 72

Task item: Annotate the compound "Cc1ccc(-n2c(=O)c3c(c4cccnc42)OCC3)cc1" with its measured inhibition at 10 µM.
Reply: 59

Task item: Could you please provide reported inhibition at 10 µM for "O=c1c2c(c3cccnc3n1-c1ccccc1)OCCC2" ? Thanks!
Reply: 62

I'm hoping you can list inhibition at 10 µM for every compound here, please.
1. CC1Cc2c(c3cccnc3n(-c3ccccc3)c2=O)O1 (stereo not given)
2. O=c1c2c(c3cccnc3n1-c1ccc(Cl)c(Cl)c1)OCC2

Reply:
1. 60
2. 63
